# target.desc: B1-AR (Homo sapiens)
# Construct: expressed in transfected cells; host or cells: CHO-K1
# Sequence (P08588 whole entry, species assumed): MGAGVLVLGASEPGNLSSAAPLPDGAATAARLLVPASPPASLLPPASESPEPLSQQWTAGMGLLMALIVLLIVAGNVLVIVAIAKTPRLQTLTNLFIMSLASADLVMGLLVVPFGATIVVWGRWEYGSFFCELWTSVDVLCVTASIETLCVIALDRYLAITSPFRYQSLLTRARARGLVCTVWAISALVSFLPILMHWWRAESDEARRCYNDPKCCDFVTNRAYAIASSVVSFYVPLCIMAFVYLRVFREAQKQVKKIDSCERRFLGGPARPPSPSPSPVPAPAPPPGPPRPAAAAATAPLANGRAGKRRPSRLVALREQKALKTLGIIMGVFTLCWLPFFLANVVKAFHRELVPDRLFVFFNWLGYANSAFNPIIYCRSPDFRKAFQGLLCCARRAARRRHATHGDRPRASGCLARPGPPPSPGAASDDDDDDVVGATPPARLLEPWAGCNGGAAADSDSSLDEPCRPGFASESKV
# experiment.summary: cAMP Gs dynamic HTRF assay, cells expressing beta-adrenergic receptor (CHO-K1), B1-AR
# Assay type: cell-based
# measurement.context: cAMP HTRF, read-out: pEC50 [B1-AR] (converted)
measure.name: EC50

>>> df
                                smiles_data           target_desc  value_observed
0  CC(C)(C)NC[C@H](O)c1ccc(Cl)c2[nH]nc(F)c12  B1-AR (Homo sapiens)         < 10 nM
1   CCC(C)(C)NC[C@H](O)c1cccc2[nH]nc(Cl)c12  B1-AR (Homo sapiens)         < 10 nM
2   CCC(C)(CC)NC[C@H](O)c1cccc2[nH]nc(F)c12  B1-AR (Homo sapiens)         < 10 nM
3       CC1(NC[C@H](O)c2cncc3[nH]ncc23)CCC1  B1-AR (Homo sapiens)  100 to 1000 nM
4    CC1(NC[C@H](O)c2cccc3[nH]nc(F)c23)CCC1  B1-AR (Homo sapiens)         < 10 nM
